Read-out: Interleukin-6 (IL6), IL6 (gene 3569)
Assay: BSK_CASM3C_IL6: BioMAP Diversity Plus: CASM3C Assay for Interleukin-6 (IL6) Biomarker Activity for (AID 2283040)
Test context: primary human coronary artery smooth muscle cells; actives raise or lower the signal
Active and inactive are the calls of the source. Rule for the calls: active = hit-call score of the fitted dose curve at least 0.9, where 1 is the maximum; inactive = score below 0.9.
Possible outcomes: class 1 (active), class 0 (inactive)

> print(dat)
                                    molecule  assigned.class
 1       c1ccc2sc(SN(C3CCCCC3)C3CCCCC3)nc2c1         class 0
 2                  CCn1c2ccccc2c2cc(N)ccc21         class 0
 3     CC(C)(COC(=O)c1ccccc1)COC(=O)c1ccccc1         class 0
 4  N#Cc1ccc(CC(=NNC(=O)Nc2ccc(OC(F)(F)F)cc2)c2cccc(C(F)(F)F)c2)cc1         class 0
 5  C=C(C)C(=O)O[C@H]1C[C@@H]2CC[C@@]1(C)C2(C)C         class 1
 6  O=C(O)c1cn(-c2ccc(F)cc2)c2cc(N3CCNCC3)c(F)cc2c1=O         class 0
 7  OC1OC[C@@H](O)[C@H](O)[C@H]1O (some centres undefined)         class 0
 8          c1ccc2c(c1)c1cccc3ccc4cccc2c4c31         class 0
 9                    CNC[C@H](O)c1cccc(O)c1         class 0
10                           CC(C)Oc1ccccc1O         class 0
11    CC1CCC(C(C)CS)CC1S (centres undefined)         class 1
12  CC(=O)[C@H]1CC[C@H]2[C@@H]3CC=C4C[C@@H](O)CC[C@]4(C)[C@H]3CC[C@]12C         class 0
13  CC1COc2ccccc2N1C(=O)C(Cl)Cl (centres undefined)         class 1
14                      O=C1CCCCCCCCCCCCCCO1         class 1
